- Tested on: AKT kinase in Pi3Kα or PTEN mutant cells lines (e.g. MCF7, BT474 or LnCAP)
- methodSummary: AKT kinase inhibition in Pi3Kα or PTEN mutant cell lines
- Format: cell-based
- measurementParameters: read-out: IC50 range for AKT kinase inhibition
observable: IC50

### Prompt Identify measured IC50 associated with CCN1C(=O)COc2nc(-c3ccc(C4(N)CC(O)C4)cc3)c(-c3ccccc3)cc21.O=C(O)C(O)C(O)C(=O)O [VAD044, L-tartrate]
### Response 50 to 130 nM

====

- targetSystem: AKT3 (Homo sapiens, UniProt Q9Y243)
- Sequence (Q9Y243 whole entry): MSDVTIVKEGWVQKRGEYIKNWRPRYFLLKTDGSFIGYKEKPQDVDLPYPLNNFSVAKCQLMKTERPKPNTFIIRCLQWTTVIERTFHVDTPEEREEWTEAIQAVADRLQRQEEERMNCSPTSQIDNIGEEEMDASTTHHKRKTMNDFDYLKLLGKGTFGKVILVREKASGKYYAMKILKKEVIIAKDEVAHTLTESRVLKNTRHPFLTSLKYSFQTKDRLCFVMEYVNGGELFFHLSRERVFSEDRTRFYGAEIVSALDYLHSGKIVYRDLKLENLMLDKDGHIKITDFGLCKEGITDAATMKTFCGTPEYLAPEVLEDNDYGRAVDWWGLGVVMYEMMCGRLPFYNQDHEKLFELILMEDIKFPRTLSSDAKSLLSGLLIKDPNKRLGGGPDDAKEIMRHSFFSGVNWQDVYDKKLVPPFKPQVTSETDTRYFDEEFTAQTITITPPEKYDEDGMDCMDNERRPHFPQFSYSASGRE
- methodSummary: Biochemical kinase assay
- measurementParameters: read-out: EC50 value for the AKT3 isoform
observable: EC50

### Prompt Identify measured EC50 associated with CCN1C(=O)COc2nc(-c3ccc(C4(N)CC(O)C4)cc3)c(-c3ccccc3)cc21.O=C(O)C(O)C(O)C(=O)O [VAD044, L-tartrate]
### Response > 500 nM

====

- methodSummary: Pharmacokinetics (PK) profile in neonate mice
- Format: in vivo, mouse
observable: Cavg (effective concentration) (ng/mL)
Give the number; ng/mL is assumed, so skip it.

### Prompt Identify measured Cavg (effective concentration) associated with CCN1C(=O)COc2nc(-c3ccc([C@]4(N)C[C@@H](O)C4)cc3)c(-c3ccccc3)cc21 [VAD044 free base]
### Response 22.9

====

- targetSystem: p38α (Homo sapiens, UniProt Q16539)
pIC50: −log10 of the molar value.
observable: pIC50

### Prompt Identify measured pIC50 associated with CCN1C(=O)COc2nc(-c3ccc(C4(N)CC(O)C4)cc3)c(-c3ccccc3)cc21.O=C(O)C(O)C(O)C(=O)O [VAD044, L-tartrate]
### Response < 5.00

====

- targetSystem: KCNQ1 (Homo sapiens)
- methodSummary: Cardiac ion channel profile
- Format: cell-based
observable: inhibition at 10 µM

### Prompt Identify measured inhibition at 10 µM associated with CCN1C(=O)COc2nc(-c3ccc(C4(N)CC(O)C4)cc3)c(-c3ccccc3)cc21.O=C(O)C(O)C(O)C(=O)O [VAD044, L-tartrate]
### Response < 25%

====

- targetSystem: UniProt Q13936
- Sequence (Q13936 whole entry): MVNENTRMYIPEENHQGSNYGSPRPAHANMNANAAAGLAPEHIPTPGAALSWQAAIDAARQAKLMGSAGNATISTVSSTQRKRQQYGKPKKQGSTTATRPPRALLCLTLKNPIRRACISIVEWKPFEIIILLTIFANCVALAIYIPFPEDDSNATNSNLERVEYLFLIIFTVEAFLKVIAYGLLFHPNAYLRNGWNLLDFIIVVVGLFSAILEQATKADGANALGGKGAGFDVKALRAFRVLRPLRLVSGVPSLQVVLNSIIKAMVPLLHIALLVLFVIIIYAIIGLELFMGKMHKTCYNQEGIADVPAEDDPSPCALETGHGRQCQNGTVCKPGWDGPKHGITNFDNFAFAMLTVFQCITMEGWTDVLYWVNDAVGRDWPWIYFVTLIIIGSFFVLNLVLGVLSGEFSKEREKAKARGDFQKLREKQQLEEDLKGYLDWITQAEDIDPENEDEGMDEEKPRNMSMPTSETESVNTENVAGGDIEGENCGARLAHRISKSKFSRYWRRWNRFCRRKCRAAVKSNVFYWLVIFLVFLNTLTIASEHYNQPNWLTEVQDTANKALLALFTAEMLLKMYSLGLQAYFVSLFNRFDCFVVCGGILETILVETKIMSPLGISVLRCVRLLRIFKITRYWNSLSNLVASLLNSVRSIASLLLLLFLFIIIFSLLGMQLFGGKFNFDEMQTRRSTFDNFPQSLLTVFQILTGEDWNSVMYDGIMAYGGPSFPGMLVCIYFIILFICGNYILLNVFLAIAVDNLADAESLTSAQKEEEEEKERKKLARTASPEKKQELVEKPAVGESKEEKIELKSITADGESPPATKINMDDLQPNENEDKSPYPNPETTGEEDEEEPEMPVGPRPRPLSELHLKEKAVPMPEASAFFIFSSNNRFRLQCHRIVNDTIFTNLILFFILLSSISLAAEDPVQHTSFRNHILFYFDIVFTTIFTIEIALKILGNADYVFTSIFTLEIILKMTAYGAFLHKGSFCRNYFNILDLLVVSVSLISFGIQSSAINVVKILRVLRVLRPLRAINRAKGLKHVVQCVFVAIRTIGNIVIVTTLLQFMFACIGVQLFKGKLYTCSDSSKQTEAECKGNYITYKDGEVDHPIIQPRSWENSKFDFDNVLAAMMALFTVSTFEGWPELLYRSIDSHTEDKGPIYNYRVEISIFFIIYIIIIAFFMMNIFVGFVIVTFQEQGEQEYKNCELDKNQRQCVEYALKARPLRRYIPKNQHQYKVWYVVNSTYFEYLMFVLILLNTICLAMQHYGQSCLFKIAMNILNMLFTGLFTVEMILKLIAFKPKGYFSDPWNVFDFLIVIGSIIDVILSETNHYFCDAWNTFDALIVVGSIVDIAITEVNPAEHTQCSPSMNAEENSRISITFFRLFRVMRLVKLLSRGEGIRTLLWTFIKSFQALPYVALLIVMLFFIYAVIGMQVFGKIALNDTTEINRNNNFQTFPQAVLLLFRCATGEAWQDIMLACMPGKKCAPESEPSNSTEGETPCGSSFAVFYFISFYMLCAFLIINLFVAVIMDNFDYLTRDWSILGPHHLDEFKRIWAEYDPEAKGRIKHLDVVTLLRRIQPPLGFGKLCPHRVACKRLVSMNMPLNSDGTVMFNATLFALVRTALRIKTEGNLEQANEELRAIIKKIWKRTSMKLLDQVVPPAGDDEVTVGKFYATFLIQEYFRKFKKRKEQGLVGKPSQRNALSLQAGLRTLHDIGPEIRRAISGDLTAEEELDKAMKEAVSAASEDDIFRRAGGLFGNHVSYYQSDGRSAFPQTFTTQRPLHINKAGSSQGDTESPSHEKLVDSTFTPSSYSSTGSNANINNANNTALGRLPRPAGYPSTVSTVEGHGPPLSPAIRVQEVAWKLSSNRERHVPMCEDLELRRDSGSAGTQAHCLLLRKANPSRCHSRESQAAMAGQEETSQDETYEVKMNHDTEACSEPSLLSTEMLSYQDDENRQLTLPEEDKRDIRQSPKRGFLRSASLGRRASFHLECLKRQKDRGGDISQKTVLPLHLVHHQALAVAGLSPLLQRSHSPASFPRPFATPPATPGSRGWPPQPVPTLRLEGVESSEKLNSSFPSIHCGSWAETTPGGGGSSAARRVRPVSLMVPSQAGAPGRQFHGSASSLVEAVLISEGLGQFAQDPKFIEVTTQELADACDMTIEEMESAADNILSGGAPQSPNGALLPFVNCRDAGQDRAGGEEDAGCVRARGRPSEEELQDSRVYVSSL
- Sequence (Q08289 whole entry partner): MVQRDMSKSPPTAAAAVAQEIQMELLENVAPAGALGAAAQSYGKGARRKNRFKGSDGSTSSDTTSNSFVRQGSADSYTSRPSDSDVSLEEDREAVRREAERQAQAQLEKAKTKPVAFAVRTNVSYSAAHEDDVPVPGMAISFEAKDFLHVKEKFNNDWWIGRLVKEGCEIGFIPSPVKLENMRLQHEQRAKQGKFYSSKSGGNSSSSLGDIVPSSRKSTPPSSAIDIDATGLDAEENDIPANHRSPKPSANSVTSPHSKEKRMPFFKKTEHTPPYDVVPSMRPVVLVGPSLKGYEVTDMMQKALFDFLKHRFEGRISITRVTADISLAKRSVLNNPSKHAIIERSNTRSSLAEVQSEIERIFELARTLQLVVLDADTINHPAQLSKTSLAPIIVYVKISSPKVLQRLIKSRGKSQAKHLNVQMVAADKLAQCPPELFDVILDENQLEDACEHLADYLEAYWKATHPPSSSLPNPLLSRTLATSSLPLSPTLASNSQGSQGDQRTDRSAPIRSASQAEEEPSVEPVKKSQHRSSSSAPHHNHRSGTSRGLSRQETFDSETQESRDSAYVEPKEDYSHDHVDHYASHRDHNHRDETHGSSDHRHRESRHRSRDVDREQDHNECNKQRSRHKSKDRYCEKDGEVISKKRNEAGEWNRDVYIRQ
- Sequence (P54289 25-956 partner limits assumed): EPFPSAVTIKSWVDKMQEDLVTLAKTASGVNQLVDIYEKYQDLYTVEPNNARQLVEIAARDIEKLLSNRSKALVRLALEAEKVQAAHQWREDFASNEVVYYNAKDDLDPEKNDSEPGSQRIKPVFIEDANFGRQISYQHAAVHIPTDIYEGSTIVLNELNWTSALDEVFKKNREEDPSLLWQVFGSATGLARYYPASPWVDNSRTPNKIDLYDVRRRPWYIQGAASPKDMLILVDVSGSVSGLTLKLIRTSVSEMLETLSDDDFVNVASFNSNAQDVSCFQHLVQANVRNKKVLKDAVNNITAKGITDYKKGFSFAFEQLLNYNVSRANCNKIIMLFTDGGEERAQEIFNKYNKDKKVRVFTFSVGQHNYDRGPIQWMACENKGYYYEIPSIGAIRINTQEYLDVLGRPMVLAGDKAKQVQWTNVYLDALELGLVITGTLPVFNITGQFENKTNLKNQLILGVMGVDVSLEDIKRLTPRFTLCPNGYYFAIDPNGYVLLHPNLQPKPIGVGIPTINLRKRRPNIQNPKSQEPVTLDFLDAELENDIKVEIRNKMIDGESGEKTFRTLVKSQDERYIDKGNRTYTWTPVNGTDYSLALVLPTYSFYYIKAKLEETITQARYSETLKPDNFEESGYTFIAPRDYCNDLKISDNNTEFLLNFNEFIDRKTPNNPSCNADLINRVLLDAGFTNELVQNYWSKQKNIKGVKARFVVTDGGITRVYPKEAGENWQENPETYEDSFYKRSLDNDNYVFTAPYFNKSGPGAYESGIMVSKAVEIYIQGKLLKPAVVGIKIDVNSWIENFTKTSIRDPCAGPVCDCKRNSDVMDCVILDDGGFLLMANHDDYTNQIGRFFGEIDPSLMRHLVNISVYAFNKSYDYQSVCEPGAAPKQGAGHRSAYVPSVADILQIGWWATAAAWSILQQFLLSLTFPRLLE
- Sequence (P54289 957-1103 partner limits assumed): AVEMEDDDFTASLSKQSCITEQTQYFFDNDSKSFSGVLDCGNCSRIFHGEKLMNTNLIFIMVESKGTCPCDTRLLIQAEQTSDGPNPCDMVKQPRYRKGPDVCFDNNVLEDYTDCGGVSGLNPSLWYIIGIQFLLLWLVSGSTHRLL
- methodSummary: Cardiac ion channel profile
- Format: cell-based
observable: inhibition at 10 µM

### Prompt Identify measured inhibition at 10 µM associated with CCN1C(=O)COc2nc(-c3ccc(C4(N)CC(O)C4)cc3)c(-c3ccccc3)cc21.O=C(O)C(O)C(O)C(=O)O [VAD044, L-tartrate]
### Response < 25%

====

- targetSystem: AKT3 (Homo sapiens, UniProt Q9Y243)
observable: IC50

### Prompt Identify measured IC50 associated with CCN1C(=O)COc2nc(-c3ccc(C4(N)CC(O)C4)cc3)c(-c3ccccc3)cc21.O=C(O)C(O)C(O)C(=O)O [VAD044, L-tartrate]
### Response > 500 nM

====

- targetSystem: full length AKT1 (Homo sapiens)
- Sequence (P31749 whole entry): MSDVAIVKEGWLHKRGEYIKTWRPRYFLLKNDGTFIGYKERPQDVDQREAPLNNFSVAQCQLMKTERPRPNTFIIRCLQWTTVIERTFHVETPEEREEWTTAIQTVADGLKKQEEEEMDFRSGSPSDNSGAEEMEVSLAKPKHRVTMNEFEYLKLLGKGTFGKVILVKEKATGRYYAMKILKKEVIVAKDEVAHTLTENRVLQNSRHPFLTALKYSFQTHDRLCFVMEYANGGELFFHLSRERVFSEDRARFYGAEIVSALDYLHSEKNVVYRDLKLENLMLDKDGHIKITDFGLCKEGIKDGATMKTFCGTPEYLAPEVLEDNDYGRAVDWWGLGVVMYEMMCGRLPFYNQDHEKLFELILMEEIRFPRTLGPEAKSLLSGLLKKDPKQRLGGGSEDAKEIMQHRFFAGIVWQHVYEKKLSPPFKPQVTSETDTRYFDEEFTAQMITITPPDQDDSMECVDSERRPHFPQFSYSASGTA
observable: pIC50
To interpret pIC50, take it as minus log10 of a concentration measured in moles per litre.

### Prompt Identify measured pIC50 associated with CCN1C(=O)COc2nc(-c3ccc(C4(N)CC(O)C4)cc3)c(-c3ccccc3)cc21.O=C(O)C(O)C(O)C(=O)O [VAD044, L-tartrate]
### Response 6.90
